Reference for the values: ChEMBL document CHEMBL3880419

Molecular target: Cation channel sperm-associated protein 1 (Mus musculus)
Assay: Inhibition of wild type CatSper1 channel in mouse corpus epididymal sperm cells assessed decrease in Ca2+ current by whole cell patch clamp assay
The source made the active and inactive calls. The rule behind the calls is not given here.

{"columns": ["mol", "inhibition"],
 "data": [
  ["O=C(c1ccccc1)c1no[n+]([O-])c1C(=O)c1ccccc1", "Active"],
  ["O=C(c1ccc(Cl)c(Cl)c1)c1no[n+]([O-])c1C(=O)c1ccc(Cl)c(Cl)c1", "Active"],
  ["Cc1conc1C(=O)c1no[n+]([O-])c1C(=O)c1nocc1C", "Active"],
  ["O=C(c1cccs1)c1no[n+]([O-])c1C(=O)c1cccs1", "Active"],
  ["CC(C)(C)C(=O)c1no[n+]([O-])c1C(=O)C(C)(C)C", "Active"]
]}

----------
Assay: Toxicity in C57BL/6 male mouse assessed as effect on reproductive hormone levels administered in diet measured after prolonged compound treatment
Conditions: in vivo, po

{"columns": ["mol", "Activity"],
 "data": [
  ["O=C(c1ccccc1)c1no[n+]([O-])c1C(=O)c1ccccc1", "Non-Toxic"],
  ["Cc1conc1C(=O)c1no[n+]([O-])c1C(=O)c1nocc1C", "Non-Toxic"],
  ["O=C(c1cccs1)c1no[n+]([O-])c1C(=O)c1cccs1", "Non-Toxic"],
  ["CC(C)(C)C(=O)c1no[n+]([O-])c1C(=O)C(C)(C)C", "Non-Toxic"],
  ["O=C(c1ccc(Cl)c(Cl)c1)c1no[n+]([O-])c1C(=O)c1ccc(Cl)c(Cl)c1", "Non-Toxic"]
]}

----------
Molecular target: Cation channel sperm-associated protein 1 (Mus musculus)
Assay: Inhibition of CatSper1 channel […] in 129/SvJ x C57BL/6J mouse cauda epididymal sperm assessed as reduction in sperm hyperactivity after 5 mins by single sperm motility assay
result-type: inhibition

{"columns": ["mol", "assay-value"],
 "data": [
  ["O=C(c1ccccc1)c1no[n+]([O-])c1C(=O)c1ccccc1", "Dose-dependent effect"],
  ["O=C(c1cccs1)c1no[n+]([O-])c1C(=O)c1cccs1", "Dose-dependent effect"],
  ["Cc1conc1C(=O)c1no[n+]([O-])c1C(=O)c1nocc1C", "Dose-dependent effect"],
  ["CC(C)(C)C(=O)c1no[n+]([O-])c1C(=O)C(C)(C)C", "Dose-dependent effect"],
  ["O=C(c1ccc(Cl)c(Cl)c1)c1no[n+]([O-])c1C(=O)c1ccc(Cl)c(Cl)c1", "Dose-dependent effect"]
]}

----------
Assay: Toxicity in C57BL/6 male mouse assessed as effect on serum biochemistry administered in diet measured after prolonged compound treatment
Conditions: in vivo, po
result-type: Activity

{"columns": ["mol", "assay-value"],
 "data": [
  ["O=C(c1ccccc1)c1no[n+]([O-])c1C(=O)c1ccccc1", "Non-Toxic"],
  ["O=C(c1cccs1)c1no[n+]([O-])c1C(=O)c1cccs1", "Non-Toxic"],
  ["O=C(c1ccc(Cl)c(Cl)c1)c1no[n+]([O-])c1C(=O)c1ccc(Cl)c(Cl)c1", "Non-Toxic"],
  ["CC(C)(C)C(=O)c1no[n+]([O-])c1C(=O)C(C)(C)C", "Non-Toxic"],
  ["Cc1conc1C(=O)c1no[n+]([O-])c1C(=O)c1nocc1C", "Non-Toxic"]
]}
